Assay: in vitro
Details: human, hela cells, % viability
Param label: returns Criterion met when viability at 28.5 h, 10 µM < 90%, returns Criterion not met otherwise, including exact equality.

# compound, assignedCategory
rows = [
    ("C=CCNC(=O)C1CN(C)CC12CCc1ccccc1C(=O)N2 (centres unmarked)", "Criterion met"),
]

Field: below-cutoff. Rule: recorded viability at 28.5 h, 10 µM strictly less than 90%. Subject: Cc1n[nH]c(=O)c2noc(C)c12 Criterion not met

###

Parameter: viability at 28.5 h, 10 µM. Scope: all listed entries.
Assay: in vitro
Settings: human, hela cells, % viability
Enter your answer as a number in %; do not include the unit.

# compound, recordedMeasurement
measured = [
    ("COCCC(=O)N1C[C@@H]2C[C@H](C1)c1ccc(NC(=O)Nc3cccc(F)c3)c(=O)n1C2", 84.6),
]

viability at 28.5 h, 10 µM for CC(C)(C)N1C(=O)c2ccc(C(=O)NNC(=O)C(C#N)C(=O)c3ccc4c(c3)C(=O)N(C(C)(C)C)C4=O)cc2C1=O (stereo not shown) is 90.3

Query Cc1cc(C2CCCCCN2C(=O)c2cc(C(C)C)on2)on1 (stereo not shown) yields viability at 28.5 h, 10 µM of 79.7

The recorded viability at 28.5 h, 10 µM for O=C(Nc1cccc2ccccc12)C1CCCN1S(=O)(=O)c1ccc(F)cc1 (stereo not shown) is 97.8

FYI, the data here is from paper PMC12040169.
